- Tested on: Plasmodium falciparum
- testMethodNotes: Primary screen in NF54 nanoGlo assay, in single point, at 2uM, 72h
- Format: functional, Erythrocyte
- testSettings: timepoint 72 hour
Among all 150,000 compounds or so, about 540 (0.36%) showed an effect of 50% or more. Only a selection was taken, and strong results are over-represented in it overall.
The following molecules are listed with their measured % Inhibition values.
measuredAttribute: % Inhibition (%)

> print(dat)
                                    molecule  reading
 1  COc1ccc(-c2nn3c(N4CCN(C)CC4)cc(C)nc3c2C)cc1OC      -11
 2  COc1cccc(N2CCC(N3CCC4(CC3)CNC(=O)O4)CC2)c1       -2
 3  CCN1CCN(CCN2CC3(CCN(Cc4ccccc4C#N)CC3)OC2=O)CC1        2
 4  CN(C)c1cncc(-c2cc(O)cc(CC[C@H]3CCCCN3)c2)n1       -2
 5  Cc1ccc(C(N)=O)c(NCC2(N3CCN(C)CC3)CCCC2)n1      -17
 6  COc1ccccc1-c1cc2nc(C)cc(N3CCN(Cc4ccccc4)CC3)n2n1      -10
 7  COc1ccc(-c2n[nH]c3c2C(=O)C[C@@H](c2ccccc2)C3)cc1       -5
 8  CN1CC2(CCN(C(=O)c3ccccc3O)CC2)C[C@@H](c2ccccc2)C1=O      -14
 9           CC(C)(C)CCCC(=O)NCCn1cnnc1C1CC1       -7
10         C[C@@H](CN)N(C)c1ccnc2cc(Br)cnc12       99
11   COC(C)(C)CCC[C@H](C)CCNCC(C)(C)N1CCOCC1        1
12  Cc1cccc([C@@H](NC(=O)CC2OCCCO2)C(F)(F)F)c1        3
13  Cc1cccc(CN2CCC[C@@](O)(CN3CCN(CC4CC4)CC3)C2=O)c1      -10
14  COC[C@H]1CN(C)CC12CCN(C(=O)Cc1ccc(Cl)cc1)CC2        9
15  Nc1nc(N2CCN(c3ccc(F)c(Cl)c3)CC2)cc([C@H]2C[C@@H](N)C2)n1       49
16  CCc1nnc2c(S(=O)(=O)N(Cc3cccc(Cl)c3)c3ccccc3)cccn12      -17
17  Clc1cccc(-c2ccc(CN3CCN([C@H]4CCNC4)CC3)o2)c1      -17
18  CN(C)c1ccc(NC(=O)CCCc2ccc3[nH]c(=O)[nH]c3c2)nc1        0
19  O=C(c1cccc(C(F)(F)F)c1)N1CCC(n2cnnc2C2CC2)CC1        2
20  Nc1nc(C2CC(N)C2)cc(N2CCC(Oc3ccccc3Cl)CC2)n1 (configuration not stated)       50
21  C[C@@H](CN1CCOCC1)NC(=O)c1cccc2c1C(=O)OC2(C)C        2
22     CC(C)Cc1ccc(CN2CCN([C@H]3CCNC3)CC2)s1       -6

====

compounds and their reported Z score
- Tested on: Plasmodium falciparum
- testMethodNotes: Primary screen in NF54 nanoGlo assay, in single point, at 2uM, 72h
- Assay type: functional, Erythrocyte
- testSettings: timepoint 72 hour
Among all 150,000 compounds or so, about 540 (0.36%) showed an effect of 50% or more. Many of the other results were omitted from the sample, so strong results are more common in it than they were.
measuredAttribute: Z score

> print(dat)
                                    compound                 system  reading
 1    COCC1(CNC(=O)c2ccc(-c3ccncc3C)cc2)CCC1  Plasmodium falciparum       -1
 2  O=S1(=O)CCC(CNC2CCc3ccc(F)cc32)C1 (configuration not stated)  Plasmodium falciparum     1.29
 3  CCOc1ccc(-c2noc([C@@H]3Cc4ccccc4N3C(C)=O)n2)cc1Cl  Plasmodium falciparum    -2.19
 4  Cc1ccc(CCC(=O)NC(c2ccccc2)C(C)C(=O)O)o1 (configuration not stated)  Plasmodium falciparum    -0.67
 5  C[C@H](NCc1ccccc1CN1CCOCC1)C(=O)Nc1cccc2ccccc12  Plasmodium falciparum     1.29
 6  CN1CCN(Cc2cc3cc4c(cc3nc2-c2ccc(Cl)cc2)OCO4)CC1=O  Plasmodium falciparum    -6.77
 7  CCN(CC)c1ncc(CN2CC[C@H](NS(C)(=O)=O)C2)s1  Plasmodium falciparum     1.85
 8  O=C1CCN(Cc2cc3cc4c(cc3nc2-c2ccc(Cl)cc2)OCO4)CCN1  Plasmodium falciparum    -0.18
 9  c1ccc2c(c1)CCCC2N1CCCC(Cn2cncn2)C1 (configuration not stated)  Plasmodium falciparum     1.31
10  CCOc1ccc(N2C[C@@H](C(=O)NCCc3ccco3)CC2=O)cc1  Plasmodium falciparum    -0.05
11        C[C@H]1CCN(Cc2ccncc2)CCN1Cc1ccccc1  Plasmodium falciparum     3.16
12  CCOC(=O)c1c(-c2ccccc2)n(C)c2cc(-c3cccnc3)c(O)cc12  Plasmodium falciparum     -1.7
13  COc1ccccc1-c1cc2nc(C)cc(N3CCN(Cc4ccccc4)CC3)n2n1  Plasmodium falciparum     1.85
14  COc1ccc(-c2nn3c(N4CCCCCC4)cc(C)nc3c2C)cc1OC  Plasmodium falciparum     1.59
15  CCN(C(=O)COc1cccc(C)c1)[C@H](c1ccc(C)cc1)c1c[nH]c2ccccc12  Plasmodium falciparum    -0.77
16  COc1ccc(-c2nn3c(N4CCN(CC=Cc5ccccc5)CC4)cc(C)nc3c2C)cc1OC  Plasmodium falciparum    -3.65
17  COc1ccc(-c2cc3nc(C)cc(N4CCN(C/C=C/c5ccccc5)CC4)n3n2)cc1OC  Plasmodium falciparum    -9.31
18  CCC1=Nc2ccccc2N=C(NC(=O)c2ccc(F)cc2)[C@H]1c1ccc(OC)c(OC)c1  Plasmodium falciparum     1.75
19  CCC1=Nc2ccccc2N=C(NC(=O)CN2CCN(C)CC2)[C@H]1c1ccccc1  Plasmodium falciparum     0.93
20          Oc1ccccc1CCN[C@H]1CCc2ccc(F)cc21  Plasmodium falciparum   -18.88
21  Cn1cc(N2C[C@@H](C(=O)NCC=Cc3cccnc3)CCC2=O)cn1  Plasmodium falciparum     0.63
22  COc1ccccc1-c1cc2nc(C)cc(N3CCN(CCO)CC3)n2n1  Plasmodium falciparum     1.98

====

- System: Plasmodium falciparum
- testMethodNotes: Primary screen in NF54 nanoGlo assay, in single point, at 2uM, 72h
- Format: functional, Erythrocyte
- testSettings: timepoint 72 hour
Hit rate of the full screen: of about 150,000 compounds, about 540 (0.36%) showed an effect of 50% or more. Shown is part of a subset that was picked to be rich in strong results.
Binarize Z score at 0.8; below is fulfilled, at or above is not fulfilled.

> print(dat)
                                   molecule     grouplabel
1  COc1cccc2c1Oc1c(c(=O)n(-c3ccccc3)n1CC(=O)Nc1cccc(F)c1)C2  not fulfilled
2    CC1(N2CCOCC2)CCN(c2ncc(C(F)(F)F)s2)CC1  not fulfilled
3   CCCN1CCn2nc(-c3nc4cc(OC)ccc4[nH]3)cc2C1      fulfilled
4  CCN(CC)C(=O)Nc1ccc(-c2c(C)nn(CC(N)=O)c2C)cc1      fulfilled
5  COC(=O)CC(C)NC(=O)CC(C)NC(=O)C1CCCC1 (stereo unspecified)  not fulfilled
6         C[C@H]1NC(=O)N(c2cccc(C#N)c2)C1=O      fulfilled

====

- Tested on: Plasmodium falciparum
- testMethodNotes: Primary screen in NF54 nanoGlo assay, in single point, at 2uM, 72h
- Type: functional, Erythrocyte
- testSettings: timepoint 72 hour
Out of some 150,000 compounds screened, about 540 (0.36%) showed an effect of 50% or more. This excerpt belongs to a sample that is enriched for strong results.
measuredAttribute: % Inhibition (%)

> print(dat)
                               smilesstring                 system  measuredattribute  reading
1  CCOC(=O)N1CCCC[C@H](NC2CCN(c3ccc(F)c(F)c3)CC2)C1  Plasmodium falciparum       % Inhibition        4
2  COCC(=O)N1CCc2cc3ccc2[C@@H]1c1cccc(c1)OCCCNC(=O)c1cc(ccc1O)O3  Plasmodium falciparum       % Inhibition       -2
3  CCCN1CCN(CCCNC(=O)c2cc3cc(S(=O)(=O)N(C)C)ccc3n2CC)CC1  Plasmodium falciparum       % Inhibition      -15
4  O=C1NCCCOc2cccc(c2)[C@H]2c3ccc(cc3CCN2C(=O)CCN2CCOCC2)Oc2ccc(O)c1c2  Plasmodium falciparum       % Inhibition       39
5        Cc1cccc2c(-c3cc(N)nc(N)n3)c[nH]c12  Plasmodium falciparum       % Inhibition       85
6  Cc1cc(C(=O)N2CCc3cc4ccc3[C@@H]2c2cccc(c2)OCCCNC(=O)c2cc(ccc2O)O4)n(C)n1  Plasmodium falciparum       % Inhibition      -11
7  COc1ccc(-c2cn3cc(-c4ccccc4)c4c3n2CCCC4)cc1  Plasmodium falciparum       % Inhibition       -8
8  COc1c(C)cc(C(=O)[C@H]2CCCN(c3cc(N)ncn3)C2)cc1C  Plasmodium falciparum       % Inhibition       78
9  CNc1ncc(C(=O)N2CCC[C@H](C(=O)c3cc(C)c(OC)c(C)c3)C2)cn1  Plasmodium falciparum       % Inhibition        4
